Molecular target: papain (Carica papaya, UniProt P00784)
Construct: purchased Sigma Chem. Co
Sequence (P00784 134-345): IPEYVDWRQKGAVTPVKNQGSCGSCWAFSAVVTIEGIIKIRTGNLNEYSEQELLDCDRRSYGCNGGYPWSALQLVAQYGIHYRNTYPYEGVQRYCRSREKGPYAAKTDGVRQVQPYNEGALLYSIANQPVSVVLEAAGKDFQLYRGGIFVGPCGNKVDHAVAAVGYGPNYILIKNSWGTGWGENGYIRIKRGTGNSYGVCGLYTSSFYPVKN
Experiment: Papain inhibitory activity (milk casein digestion)
Format: biochemical
Conditions: papain 80 μg/ml 0.5 ml, cysteine, pH 6.8, 1% milk casein, 40° C., 10 minutes
# maps each entry to its ID50 (amount of inhibitor for 50% inhibition)

Task: Assign ID50 (amount of inhibitor for 50% inhibition) to the following record: CCOC(=O)[C@@H](NC(=O)C1OC1C(=O)OCc1cccc2ccccc12)C(C)C (some centres unmarked) [EP-219]
Result: 2.12 γ

Task: Assign ID50 (amount of inhibitor for 50% inhibition) to the following record: CCCCCOC(=O)[C@H]1O[C@@H]1C(=O)O (relative stereo) [EP-144, n-amyl potassium epoxysuccinate]
Result: 0.34 γ

Task: Assign ID50 (amount of inhibitor for 50% inhibition) to the following record: CCOC(=O)C1OC1C(=O)N[C@@H](CCCCNC(=O)OC(C)(C)C)C(=O)OCc1ccccc1 (some centres unmarked) [EP-170]
Result: 27.50 γ

Task: Assign ID50 (amount of inhibitor for 50% inhibition) to the following record: C=CCOC(=O)C1OC1C(=O)N[C@@H](CCCCNC(=O)OCc1ccccc1)C(=O)OCc1ccccc1 (some centres unmarked) [EP-164]
Result: 20.49 γ

Task: Assign ID50 (amount of inhibitor for 50% inhibition) to the following record: O=C(NCCCC[C@H](NC(=O)C1OC1C(=O)OCCCc1ccccc1)C(=O)OCc1ccccc1)OCc1ccccc1 (some centres unmarked) [EP-188]
Result: 1.86 γ

Task: Assign ID50 (amount of inhibitor for 50% inhibition) to the following record: O=C(CNC(=O)[C@@H]1O[C@H]1C(=O)OCCC1CCCCC1)OCc1ccccc1 (relative stereo) [EP-207]
Result: 6.52 γ

Task: Assign ID50 (amount of inhibitor for 50% inhibition) to the following record: O=C(OCc1ccc(Cl)cc1)[C@@H]1O[C@H]1C(=O)OCc1ccc(Cl)cc1 (relative stereo) [EP-115, di-p-chlorobenzyl epoxysuccinate]
Result: 1.20 γ

Task: Assign ID50 (amount of inhibitor for 50% inhibition) to the following record: O=C(OCc1ccc(Cl)cc1Cl)[C@H]1O[C@@H]1C(=O)OCc1ccc(Cl)cc1Cl (relative stereo) [EP-117, di-2',4'-dichlorobenzyl epoxysuccinate]
Result: 2.55 γ

Task: Assign ID50 (amount of inhibitor for 50% inhibition) to the following record: O=C(OCCCc1ccccc1)[C@H]1O[C@@H]1C(=O)OCCCc1ccccc1 (relative stereo) [EP-131, di-3'-phenylpropyl epoxysuccinate]
Result: 11.36 γ

Task: Assign ID50 (amount of inhibitor for 50% inhibition) to the following record: COc1ccc(COC(=O)[C@@H]2O[C@H]2C(=O)O)cc1 (relative stereo) [EP-102, p-methoxybenzyl potassium epoxysuccinate]
Result: 0.36 γ
